Assay: Water-contact angle test
Assay type: physicochemical
Details: C2-C12
Reported Property: Water contact angle (°)
Answer format: numeric, ° implied, no suffix.

Example results:
>  <Mol Smiles>
c1cncc(-c2nc3c4cccnc4c4ncccc4c3[nH]2)c1

>  <Reported Property>
Water contact angle

>  <Units Text>
°

>  <Observed Value>
0

$$$$
>  <Mol Smiles>
c1cnc2c(c1)c1nc(-c3ccncc3)oc1c1cccnc12

>  <Reported Property>
Water contact angle

>  <Units Text>
°

>  <Observed Value>
0

$$$$

Q: What does the data say about its Water contact angle? Entry: c1ccc(-c2nc3c4cccnc4c4ncccc4c3[nH]2)cc1
Result: 0

Q: What does the data say about its Water contact angle? Entry: c1ccc(-c2nc3c4cccnc4c4ncccc4c3o2)nc1
Result: 0

Q: What does the data say about its Water contact angle? Entry: c1ccc(-c2nc3c4cccnc4c4ncccc4c3o2)cc1
Result: 0

Q: What does the data say about its Water contact angle? Entry: c1ccc(-c2nc3c4ccccc4c4ccccc4c3[nH]2)cc1
Result: 140.6

Recorded values, source paper PMC9814590.
